- System: SK-MEL-2 melanoma
- testProtocol: NCI tumour cell line growth inhibition, 48 h; in the data active = GI50 below about 0.43 µM; inactive = the rest
In this exercise, the only acceptable responses are active, inactive

input: GET /call?item= O=C(NCCN1CCC(O)CC1)c1cc2c(o1)C(=O)c1ccccc1C2=O returns the recorded outcome of this test.
output: inactive

input: How about this compound: O=C1NC(=O)C(c2ccc(Cl)cc2)=C1Nc1ccc(Cl)c(C(=O)O)c1
output: inactive

input: Now consider COc1ccc2c(c1)CCc1[nH]nc(-c3cc(OC)c(OC)c(OC)c3)c1-2 and answer again.
output: active

input: Now give it for COc1cc(-c2csc(NC(=O)Nc3cc(C(F)(F)F)cc(C(F)(F)F)c3)n2)cc(OC)c1OC too.
output: inactive

input: Field entry: O=C(/C=C/c1cccc([N+](=O)[O-])c1)c1ccc(O)c(CN2CCN(c3cc4c(cc3F)c(=O)c(C(=O)O)cn4C3CC3)CC2)c1
output: inactive

---

- System: NCI-H522 lung
- testProtocol: NCI tumour cell line growth inhibition, 48 h; in the data active means GI50 below about 0.43 µM; inactive means the rest
Returns: one label drawn from active, inactive

input: Recorded call for COc1ccc2c(c1)c1nc3cc(C)c(C)cc3nc1n2CCN(C)C ?
output: inactive

input: COc1ccc2c(c1)CCc1[nH]nc(-c3cc(OC)c(OC)c(OC)c3)c1-2 , same question.
output: active

input: Entry O=C(O)CC(NC(=O)CP(=O)(O)O)C(=O)O.[NH-]C1CCCCC1[NH-].[Pt+2] (stereo not given) please
output: inactive

input: Now try CN1CCN(C(=O)c2c(NC(=O)NS(=O)(=O)c3ccccc3)sc3c2CCCCC3)CC1 .
output: inactive

input: Param item: COc1cc2c(cc1OC)-c1ccc3cc4c(cc3c1N(CCN(C)C)C2)OCO4
output: active

---

- Test system: SW-620 colon
- testProtocol: NCI tumour cell line growth inhibition, 48 h
Provide the reported GI50 of each item.

input: Which GI50 is listed for COc1cc(-c2csc(NC(=O)Nc3cc(C(F)(F)F)cc(C(F)(F)F)c3)n2)cc(OC)c1OC ?
output: 3.21 µM

input: What do we get for O=C1NC(=O)C(c2ccc(Cl)cc2)=C1Nc1ccc(Cl)c(C(=O)O)c1 ?
output: > 25 µM

input: Also check C[C@@H](NC(=O)[C@@H](CC(=O)N1CCC(N2CCCCC2)CC1)N1C(=O)[C@@H](N2C(=O)OC[C@@H]2c2ccccc2)[C@H]1/C=C/c1cccc(Cl)c1)c1ccccc1
output: 2.06 µM

input: // next record O=CC(Br)C(Br)c1ccccc1 (stereo not drawn)
output: 0.776 µM

input: What about this compound? Cn1c(/C=C(\C#N)c2cccc(C(F)(F)F)c2)nc2c(N3CCOCC3)nc(Cl)nc21
output: 0.377 µM

input: Would you mind doing Oc1ccc2ccccc2c1C1NN=C(c2ccccc2)S1 (stereo not drawn) as well?
output: 0.806 µM

input: Another compound to check: CSc1n(Cc2ccc3ccccc3c2)c(C)c[n+]1Cc1ccc2ccccc2c1
output: 0.852 µM

input: Please answer likewise for COc1ccc2nc3cc([N+](=O)[O-])ccc3c(NCCCN(CCO)CCO)c2c1
output: 3.15 µM

---

- System: HL-60(TB) leukemia
- testProtocol: NCI tumour cell line growth inhibition, 48 h; in the data active = GI50 below about 0.43 µM; inactive = the rest
Respond with a class label; see active, inactive

input: Could you kindly confirm the outcome this assay logged for COc1cc2c(cc1OC)-c1ccc3cc4c(cc3c1N(CCN(C)C)C2)OCO4 ?
output: active

input: Subsequent entry: COc1ccc(C2=Nc3c/c(=C\c4c(O)[nH]c5ccc(Cl)cc45)ccc3=N2)cc1
output: inactive

input: Follow-up item: O=C(O)c1ccc([S-])cc1.[Au+].c1ccc(CN2[CH-]N(Cc3ccccc3)C(c3ccccc3)=C2c2ccccc2)cc1
output: active

input: // same read-out, input: CCN(CC)CCCC(C)Nc1c2ccc(Cl)cc2nc2cc(OC)c(OC)cc12 (centres undefined)
output: inactive

Source of measurements: PubChem BioAssay (NCI)
